Tested on: U251 CNS
Experiment: NCI tumour cell line growth inhibition, 48 h
MEASURED_PARAMETER: TGI

| COMPOUND | RESULT |
| --- | --- |
| COc1cc(-c2nc3ccc(N4CCN(C)CC4)cc3[nH]2)c(OC)c2[nH]c(COC(C)=O)nc12 | > 100 µM |
| CC(CC(N)C(=O)O)C(=O)O (stereo unspecified) | > 100 µM |
| CC(=O)O[C@H]([C@H](OC(C)=O)[C@H](C)OC(C)=O)[C@@H](/C=C/[C@@H]1CC=CC(=O)O1)OC(C)=O | > 100 µM |
| NS(=O)(=O)c1nnc(NC(=O)C23CC4CC(CC(C4)C2)C3)s1 | > 100 µM |
| O=c1oc2ccc(I)cc2c(=O)n1-c1ccc(F)cc1F | 19 µM |
| Cn1c(=O)c(Oc2ccc(F)cc2F)cc2cnc(NC(C)(C)CO)nc21 | > 25 µM |
| CC(CCC[C@H](C)CO)[C@H]1[C@@H](O)C(O)C2[C@@H]3C[C@@H](O)C4(O)C[C@@H](O)CC[C@]4(C)C3CC[C@@]21C (stereo partly specified) | > 100 µM |
| CC(=O)OC(CC1(C)C(C)CCC23COC(=O)C2=CCCC31)c1ccoc1 (stereo unspecified) | 29.3 µM |
| CO[C@@H]1C=C[C@@]23c4cc5c(cc4CN(C[C@@H]2O)[C@H]3C1)OCO5 | 73.1 µM |
| Cc1ccc(C(=O)Nc2ccc(CP(=O)(O)O)cc2)cc1NC(=O)c1cccc(N)c1 | > 100 µM |
| COc1cc2c(c(OC)c1OC)-c1ccc(O)cc1[C@@H](NC(C)=O)CC2 | > 100 µM |
| C=CCNC(=S)N1CC(C)C(=O)Nc2cc(Cl)ccc21 (stereo unspecified) | > 100 µM |
| CC(CC(=O)N1C(=O)C(C)(C)[C@@H](O)[C@H]1CC(C)C(Cl)(Cl)Cl)C(Cl)(Cl)Cl (stereo partly specified) | > 100 µM |
| O=c1c2ccccc2[nH]n1Cc1ccccc1 | > 100 µM |
| CN(C)c1ccc(/C=C/c2ccc(S(N)(=O)=O)cc2)cc1 | 31.7 µM |
| Cc1ccc2oc(=O)cc(/C(=C3/C=CC=N3)c3ccc[nH]3)c2c1 | 1.57 µM |
| Cc1ccc(C2(c3ccc(Cl)cc3)c3ccccc3C3=NCCN32)cc1 (stereo unspecified) | 29 µM |
| Cc1c(O)c(N=Nc2nc3ccccc3s2)c2ccccc2c1O | > 50 µM |
| COC(OC)c1cc2c(cc1C=O)OCO2 | > 100 µM |
| CC1CCN(Cc2ccc(NC(=O)c3cc4ccc5cccnc5c4[nH]3)cc2)CC1 | 10.3 µM |
| COc1ccc(OC)c(NCC(=O)Nn2cnc3ccc(S(=O)(=O)Nc4cc(OC)ccc4OC)cc3c2=O)c1 | > 100 µM |

###

This section presents compounds with their documented TGI values.
Tested on: SF-295 CNS
Experiment: NCI tumour cell line growth inhibition, 48 h
MEASURED_PARAMETER: TGI

| COMPOUND | MEASURED_PARAMETER | RESULT |
| --- | --- | --- |
| CCCCCCCCCCCCOP(=O)(O)OP(=O)(O)OCC1OC(n2ccc(N)nc2=O)CC1O (stereo not given) | TGI | > 100 µM |
| CCOC(=O)C(NC(=O)c1ccccc1)(Nc1ccc(S(=O)(=O)Nc2ncccn2)cc1)C(F)(F)F (stereo not given) | TGI | > 100 µM |
| CNC(=O)NCNC(=O)NC | TGI | > 100 µM |
| CSCC[C@@H]1C(=O)N(C)[C@H](C(C)(C)C)N1C(=O)c1ccccc1 | TGI | > 100 µM |
| Oc1ccc([C@H]2c3c(O)cc(O)cc3C3c4c(cc(O)cc4[C@@H]2[C@H]2c4cc(O)cc5c4C(c4cc(O)cc(O)c4[C@@H]2c2ccc(O)cc2)[C@@H](c2ccc(O)cc2)O5)O[C@@H]3c2ccc(O)cc2)cc1 (stereo not given in full) | TGI | > 100 µM |
| N#CC(/C(CCC(=O)Nc1ccc(Cl)cc1)=N/NC(=O)c1cc2ccccc2cc1O)c1ccccc1 (stereo not given) | TGI | > 100 µM |
| COc1cc(/C=C(\NC(=O)c2ccccc2)c2nc3ccc4c(c3[nH]2)C(=O)c2ccccc2C4=O)cc(OC)c1OC | TGI | > 100 µM |
| Cc1cc(Cl)nc2nc(Cl)c(N)cc12 | TGI | 29.9 µM |
| COc1cc(-c2nccc3cc(OC)c(OC)cc23)ccc1O | TGI | > 100 µM |
| CO[C@@H]1C=C[C@@]23c4cc5c(cc4CN(C[C@@H]2O)[C@H]3C1)OCO5 | TGI | > 100 µM |
| CCN1CCC(Nc2ccnc3cc(Cl)ccc23)CC1 | TGI | 53.6 µM |
| CC(O)C1(CNc2cc(Cl)nc(N)n2)CCCCC1 (stereo not given) | TGI | > 100 µM |
| C=C1CC2(CC(c3ccccc3Cl)OC(c3ccccc3Cl)C2)OC1=O (stereo not given) | TGI | 19.2 µM |
| O=C1C=CC2OC(c3ccccc3)C(O)C2O1 (stereo not given) | TGI | 19.6 µM |
| COc1ccccc1Cc1ccc(C2C=CC3(CC(=O)C=C3C)C(=O)C2)o1 (stereo not given) | TGI | 65.9 µM |
| O=C(CC1(O)C(=O)N(Cc2ccccc2)c2ccc(Cl)cc21)c1ccc(C(=O)NCC2CCC3(CC2)OOC2(CCCCC2)OO3)cc1 (stereo not given) | TGI | 1.34 µM |
| COCCN(CCNC(=O)c1cccc2c(N)c3cccc(C)c3nc12)CCOC | TGI | > 22.9 µM |
| CCCCn1c(CSc2ccc(Cl)cc2)c(C(=O)OCC)c2cc(OC)c(Br)cc21 | TGI | > 100 µM |
| N#CCc1c(-c2ccccc2)n(S(=O)(=O)c2ccccc2)c2ccccc12 | TGI | > 100 µM |
| O=c1oc2ccc(I)cc2c(=O)n1-c1ccc(F)cc1F | TGI | 3.74 µM |

###

This section presents compounds with their documented TGI values.
Test system: HT29 colon
Assay: NCI tumour cell line growth inhibition, 48 h

| COMPOUND | TGI |
| --- | --- |
| CCC[CH2][Sn]([CH2]CCC)([O]c1cccc2cccnc12)[O]c1cccc2cccnc12 | 1.72 µM |
| COc1ccc([N+](=O)[O-])c2c(NCCCN(C)C)ccnc12 | > 32.4 µM |
| Cn1c(=O)c(Oc2ccc(F)cc2F)cc2cnc(NC(C)(C)CO)nc21 | > 25 µM |
| CCC(=O)N1C(=O)OCC1C(C)C (stereo unspecified) | > 100 µM |
| CCOC(=O)C1SC(=Nc2ccc(OC)c(OC)c2)N=C1C (stereo unspecified) | 34.8 µM |
| CCCCCCCCCCCCCCCCCc1nccn1CCOCCO | 10.1 µg/mL |

###

System: SW-620 colon
Test: NCI tumour cell line growth inhibition, 48 h

| COMPOUND | TGI |
| --- | --- |
| CSC1NC(c2ccccc2)=C(C#N)C(=O)N1C1OCC(OC(C)=O)C(OC(C)=O)C1OC(C)=O (stereo unspecified) | > 100 µM |
| CCN1CCC(Nc2ccnc3cc(Cl)ccc23)CC1 | > 100 µM |
| CC1(C)[C@@H]2CC[C@]1(C)[C@H](OC(=O)/C=C/c1ccccc1)C2 | 30.6 µM |
| Nc1ccc2[nH]c(-c3cccc(C(F)(F)F)c3)cc(=O)c2c1 | > 100 µM |
| COc1cc2c(cc1OC)C1C(=O)c3c(O)cc4c(c3OC1CO2)C=CC(C)(C)O4 (stereo unspecified) | > 100 µM |
| CCOP(=O)(OCC)/C(C#N)=C/c1cccn1C(C)C | > 100 µM |
| Cc1ccc2oc(=O)cc(/C(=C3/C=CC=N3)c3ccc[nH]3)c2c1 | 13.7 µM |
| CSc1c(C2=C(c3cn(C)c4ccccc34)C(=O)NC2=O)c2ccccc2n1C | > 25 µM |
| COC(OC)c1cc2c(cc1C=O)OCO2 | > 100 µM |
| C=CCN1/C(=C(\C#N)c2nc3ccccc3[nH]2)Sc2c1nc[nH]c2=O | > 100 µM |
| CC(=O)/C(=C/c1ccccc1)C(=O)CC(C)C | 4.63 µM |

###

System: HCT-116 colon
Experiment: NCI tumour cell line growth inhibition, 48 h; in the data active = GI50 below about 0.43 µM; inactive = the rest
Outcomes: active, inactive

| COMPOUND | CLASS_LABEL |
| --- | --- |
| COC1C(O)CC(OC2CC(OC3CC(O[C@@H]4C(=O)c5c(cc6cc(OC7CC(OC8CC(O)C(O)C(C)O8)C(O)C(C)O7)c(C)c(O)c6c5O)CC4[C@H](OC)C(=O)O)OC(C)C3O)OC(C)C2O)OC1C (stereo partly drawn) | inactive |
| O=C1/C(=C/c2ccccc2)CN(C(=O)C(Cl)Cl)C/C1=C\c1ccccc1 | active |
| CC(=O)O[C@H]([C@H](OC(C)=O)[C@H](C)OC(C)=O)[C@@H](/C=C/[C@@H]1CC=CC(=O)O1)OC(C)=O | inactive |
| CCCCCCCCCCCCCCCCCc1nccn1CCOCCO | inactive |
| CSc1c(C2=C(c3cn(C)c4ccccc34)C(=O)NC2=O)c2ccccc2n1C | inactive |
| O=C(CC1(O)C(=O)N(Cc2ccccc2)c2ccc(Cl)cc21)c1ccc(C(=O)NCC2CCC3(CC2)OOC2(CCCCC2)OO3)cc1 (stereo not drawn) | inactive |
| C[C@@]1(C(=O)O)CCC[C@]2(C)C1CC[C@@]13C[C@@](O)(CC[C@]12O)[C@@]1(CO1)C3 (stereo partly drawn) | inactive |
| COc1ccc(/C=C2\CN(C(=O)C(Cl)Cl)C/C(=C\c3ccc(OC)cc3)C2=O)cc1 | active |
